tested.system: RSV F on RSV subtype A virus (RSV-A2) (Respiratory Syncytial Virus, subtype A, …, UniProt P03420 26-574)
experiment.description: cell-based or functional assay
readout: neut IC50 (ug/ml) subtype A (wright) (µg/mL)
The figure you give is taken to be in µg/mL; do not add the unit.

ADI-36669 (antibody, V domains shown) VH: EVQLVQSGAEVKKPGASVRVYCKASGYTFTTYYIHWVRQAPGQGLEWMGMINPSGGTTSYAQKFQGRLTMTGDTSTSTVYMELNYLRSEDTAVYYCTRDFIYFYGSGDGFDYWGQGTLVTVSS VL: EIVMTQSPSAMSASVGDRVTITCRASQGISNYLAWFQQKPGKVPKRLIYAASSLQSGVPSRFSGSGSGTEFTLTITSLQPEDFATYYCLQHNSYPFTFGPGTKVEIK	0.025
ADI-36676 (antibody, V domains shown, also called Ab 832; Antibody Number 832) VH: EVQLLESGGGVVQPGRSLRLSCAASGFSFRNYDMHWVRQAPGKGLEWVAIISYDGSNKYADSVKGRFTISRDTSKNTLYLQMNSLRVEDTAVYYCARADSSGYYKGSEYFQHWGQGTLVTVSS VL: SYELTQLPSVSVAPGQTARITCGGNNIGTKSVQWYQHKPGQAPVLVVYDDSDRPSDIPERFSGSNSGNTATLTISRVEAGDEADYYCQVWDSSSDHYVFGTGTKLTVL	0.006
ADI-36674 (antibody, V domains shown) VH: EVQLLESGGGLVKPGGSLRLSCAASGFKFRSYSMNWVRQAPGKGLEWVSSISSSSSYVDYAGSLKGRFTISRDNAENSLYLQMNSLRAEDTAMYYCARAGSVPVAGTYNDYWGQGTLVTVSS VL: QSVLTQPPSVSGAPGQRVTISCTGSSSNIGAGYDVHWYQHLPGTAPKLLIHGNNNRPAGVPDRFSGSKSGTSASLVITGLQADDEADYYCQSYDRSLSVLFGGGTKVTVL	0.014

For the binder ADI-41232 (antibody, V domains shown) VH: QVQLVQSGAEVKKPGASVKVSCKASGYTFTHYGISWVRQAPGQGLEWMAWISAYNGNTNYAQKLQDRVTVTTDTSTSTAYMELRSLRSDDTALYYCARDSMGGTTLFDYWGQGTLVTVSS VL: DIVLTQTPLSLPVTLGQPASISCRSSQSLVYSDGNTYLNWFQQRPGQSPRRLIYKVSNRDSGVPDRFTGSGSGTDFTLKISRVEAEDVGVYYCMQGTHWPPMYTFGQGTKLEIK , what neut IC50 (ug/ml) subtype A (wright) is on record?
0.025

For the binder ADI-41274 (antibody, V domains shown, also called Ab 592; Antibody Number 592) VH: EVQLVESGGGLVKPGGSLRLSCAASGFSFSSYAMNWVRQAPGKGLQWVSSISAGSSYIDYADSVKGRFTISRDNAENSLFLQMNSLRVEDTAVYYCARVGSYTHGYEFDYWGQGTLVTVSS VL: QPVLTQPPSVSGAPGQRVTISCTGSNSNIGAGYDVHWYQQLPGTAPKLLIYASTIRPSGVPDRFSGSKSGTSASLAITGLQAEDEADYYCQSYDRNLSVVFGGGTKVTVL , what neut IC50 (ug/ml) subtype A (wright) is on record?
0.109
